target: SMARCA2 (Homo sapiens); construct: endogenous in cells; test: SMARCA2 Cellular Degradation Assay (Western blot analysis on Jess platform); type: cell-based; conditions: cellular degradation
Sequence (P51531 whole entry, species assumed): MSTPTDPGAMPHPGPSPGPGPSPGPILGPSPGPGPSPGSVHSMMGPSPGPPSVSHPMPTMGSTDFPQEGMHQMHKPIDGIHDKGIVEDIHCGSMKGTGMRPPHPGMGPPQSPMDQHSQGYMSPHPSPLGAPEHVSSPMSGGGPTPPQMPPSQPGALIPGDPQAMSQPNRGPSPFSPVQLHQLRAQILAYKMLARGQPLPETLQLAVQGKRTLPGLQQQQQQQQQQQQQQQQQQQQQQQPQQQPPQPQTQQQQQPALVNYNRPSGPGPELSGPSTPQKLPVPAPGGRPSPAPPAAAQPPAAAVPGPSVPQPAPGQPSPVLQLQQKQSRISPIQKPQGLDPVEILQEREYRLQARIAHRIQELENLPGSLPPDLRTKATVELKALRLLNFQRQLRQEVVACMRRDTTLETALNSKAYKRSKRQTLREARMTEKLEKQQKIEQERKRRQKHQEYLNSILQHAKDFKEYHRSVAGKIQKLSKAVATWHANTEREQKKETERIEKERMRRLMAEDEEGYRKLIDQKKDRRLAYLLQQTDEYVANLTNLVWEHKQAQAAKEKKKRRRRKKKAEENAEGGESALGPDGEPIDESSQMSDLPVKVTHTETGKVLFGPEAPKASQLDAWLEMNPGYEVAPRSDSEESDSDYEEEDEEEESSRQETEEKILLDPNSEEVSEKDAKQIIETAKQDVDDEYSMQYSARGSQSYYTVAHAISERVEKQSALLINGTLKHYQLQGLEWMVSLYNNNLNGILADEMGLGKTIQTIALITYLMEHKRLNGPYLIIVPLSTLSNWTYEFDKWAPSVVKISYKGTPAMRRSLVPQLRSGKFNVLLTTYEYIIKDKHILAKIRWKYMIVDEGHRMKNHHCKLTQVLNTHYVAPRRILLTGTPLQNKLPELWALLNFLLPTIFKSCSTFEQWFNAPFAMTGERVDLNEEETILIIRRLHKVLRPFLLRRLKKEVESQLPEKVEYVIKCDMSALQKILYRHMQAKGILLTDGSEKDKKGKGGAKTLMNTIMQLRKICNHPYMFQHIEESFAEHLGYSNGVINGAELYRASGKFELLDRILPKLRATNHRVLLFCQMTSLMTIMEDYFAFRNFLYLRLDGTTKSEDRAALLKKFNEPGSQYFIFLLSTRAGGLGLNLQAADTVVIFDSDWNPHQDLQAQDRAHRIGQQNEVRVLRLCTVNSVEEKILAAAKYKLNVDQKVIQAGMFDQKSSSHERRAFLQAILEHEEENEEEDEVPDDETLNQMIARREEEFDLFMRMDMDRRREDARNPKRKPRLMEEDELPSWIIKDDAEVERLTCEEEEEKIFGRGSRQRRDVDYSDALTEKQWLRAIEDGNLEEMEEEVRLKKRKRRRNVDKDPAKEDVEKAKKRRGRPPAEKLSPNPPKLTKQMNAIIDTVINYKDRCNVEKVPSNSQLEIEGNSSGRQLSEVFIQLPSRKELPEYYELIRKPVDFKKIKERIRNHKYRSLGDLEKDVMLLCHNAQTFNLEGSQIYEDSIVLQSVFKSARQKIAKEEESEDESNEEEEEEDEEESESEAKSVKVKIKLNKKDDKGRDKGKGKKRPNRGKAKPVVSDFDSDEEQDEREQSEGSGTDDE
Assign labels as follows, please: satisfied for DC50 below 5 nM; not satisfied for DC50 equal to or exceeding 5 nM.

# count of solved cases: 3
[
  {
    "compound": "CC(C)c1cc(C2(C(=O)N3CC4(CN(CC5CCN(c6ccc(C7CCC(=O)NC7=O)cc6)CC5)C4)C3)CCN(c3cnnc(-c4ccccc4O)c3)CC2)no1 (racemic) [Example 92]",
    "class": "satisfied"
  },
  {
    "compound": "CN(C(=O)C1(OC2CC2)CCN(c2cnnc(-c3ccccc3O)c2)CC1)C1CCN(C(=O)CN2CCC(c3ccc([C@@H]4CCC(=O)NC4=O)cc3)CC2)CC1 (racemic) [Example 115]",
    "class": "not satisfied"
  },
  {
    "compound": "O=C1CC[C@H](c2ccc(N3CCC(C(=O)N4CCC5(CC4)CN(CC4(c6ccccc6)CCN(c6cnnc(-c7ccccc7O)c6)CC4)C5)CC3)cc2)C(=O)N1 [Example 164]",
    "class": "satisfied"
  }
]

Consider now this further compound.
query: In the record for CN(C(=O)C1(Oc2ccn(C)n2)CCN(c2cnnc(-c3ccccc3O)c2)CC1)C1CCN(C(=O)CN2CCC(c3ccc([C@@H]4CCC(=O)NC4=O)cc3)CC2)CC1 (racemic) [Example 110] , is DC50 less than 5 nM?
result: not satisfied

###

molecular target: SMARCA4 (Homo sapiens, UniProt P51532); construct: endogenous in cells; test: Cellular degradation assay, SMARCA4 (Table 1); assay type: cell-based
Sequence (P51532 whole entry, species assumed): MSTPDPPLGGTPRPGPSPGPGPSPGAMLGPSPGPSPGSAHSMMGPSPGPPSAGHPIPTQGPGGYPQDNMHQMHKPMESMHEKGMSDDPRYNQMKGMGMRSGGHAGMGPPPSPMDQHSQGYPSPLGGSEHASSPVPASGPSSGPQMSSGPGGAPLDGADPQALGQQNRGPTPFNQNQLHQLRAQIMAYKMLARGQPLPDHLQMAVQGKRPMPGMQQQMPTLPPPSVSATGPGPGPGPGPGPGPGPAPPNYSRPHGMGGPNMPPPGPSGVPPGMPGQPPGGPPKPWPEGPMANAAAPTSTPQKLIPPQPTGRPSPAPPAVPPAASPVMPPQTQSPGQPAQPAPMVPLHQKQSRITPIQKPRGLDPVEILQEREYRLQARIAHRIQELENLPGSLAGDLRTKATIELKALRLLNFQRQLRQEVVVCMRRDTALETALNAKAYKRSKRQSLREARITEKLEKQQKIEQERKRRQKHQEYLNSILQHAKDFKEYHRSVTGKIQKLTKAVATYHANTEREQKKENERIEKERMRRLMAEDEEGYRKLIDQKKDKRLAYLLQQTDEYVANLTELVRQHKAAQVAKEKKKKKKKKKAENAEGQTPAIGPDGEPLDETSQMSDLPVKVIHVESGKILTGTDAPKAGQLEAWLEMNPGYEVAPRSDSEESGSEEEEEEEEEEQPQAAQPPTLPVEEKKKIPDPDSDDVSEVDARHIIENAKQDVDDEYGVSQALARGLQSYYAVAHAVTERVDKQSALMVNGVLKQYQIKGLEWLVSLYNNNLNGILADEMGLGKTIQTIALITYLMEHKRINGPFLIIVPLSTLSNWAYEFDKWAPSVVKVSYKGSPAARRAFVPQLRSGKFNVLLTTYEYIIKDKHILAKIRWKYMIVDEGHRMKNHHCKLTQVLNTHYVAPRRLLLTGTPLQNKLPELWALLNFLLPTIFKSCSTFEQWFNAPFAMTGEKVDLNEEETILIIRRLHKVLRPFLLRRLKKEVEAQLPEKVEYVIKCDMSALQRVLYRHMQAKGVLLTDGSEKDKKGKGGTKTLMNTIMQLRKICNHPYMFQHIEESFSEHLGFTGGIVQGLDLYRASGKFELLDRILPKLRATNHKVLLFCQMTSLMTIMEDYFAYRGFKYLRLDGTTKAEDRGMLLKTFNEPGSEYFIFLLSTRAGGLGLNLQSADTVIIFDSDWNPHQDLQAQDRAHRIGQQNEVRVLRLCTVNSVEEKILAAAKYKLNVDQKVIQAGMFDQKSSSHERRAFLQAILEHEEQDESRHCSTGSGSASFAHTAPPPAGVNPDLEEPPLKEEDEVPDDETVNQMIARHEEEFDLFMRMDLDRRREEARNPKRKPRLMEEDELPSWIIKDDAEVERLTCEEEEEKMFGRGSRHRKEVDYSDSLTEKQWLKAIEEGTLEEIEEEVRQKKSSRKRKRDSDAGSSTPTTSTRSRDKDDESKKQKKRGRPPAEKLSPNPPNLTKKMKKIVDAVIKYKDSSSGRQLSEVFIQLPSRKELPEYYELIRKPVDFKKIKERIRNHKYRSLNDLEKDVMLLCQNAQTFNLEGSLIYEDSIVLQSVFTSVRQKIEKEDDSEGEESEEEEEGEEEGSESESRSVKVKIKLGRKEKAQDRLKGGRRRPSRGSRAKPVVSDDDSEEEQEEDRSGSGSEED
readout-kind: Dmax (%)
Express the result in % but write the number alone.

query: Any idea what Dmax was measured for O=C1CCC(c2ccc(N3CCC(CN4CC5(C4)CN(C(=O)C4(c6ccc(Cl)c(Cl)c6)CCN(c6cnnc(-c7ccccc7O)c6)CC4)C5)CC3)cc2)C(=O)N1 (racemic) ?
result: 37.2

query: Any idea what Dmax was measured for O=C1CC[C@H](c2ccc(N3CCC(CN4CCC(NC(=O)C5(c6ccccn6)CCN(c6cnnc(-c7ccccc7O)c6)CC5)CC45CCC5)CC3)cc2)C(=O)N1 (stereo partly drawn) ?
result: 57.1

query: Any idea what Dmax was measured for O=C1CCC(c2ccc(N3CCC(CCN4CC5(C4)CN(C(=O)C4(OC6CCCCC6)CCN(c6cnnc(-c7ccccc7O)c6)CC4)C5)CC3)cc2)C(=O)N1 (racemic) ?
result: 29.3

###

# Fold Selectivity SMARCA4/2 listing for each entry below
Target: SMARCA2 (Homo sapiens)
Construct: endogenous in cells
Assay: SMARCA2 Cellular Degradation Assay (Western blot analysis on Jess platform)
Format: cell-based
Details: ratio DC50 SMARCA4 / DC50 SMARCA2
Method: SMARCA2 Cellular Degradation Assay Western Blot Analysis for SMARCA2 Degradation […] Following normalization, the percentage of SMARCA2 remaining per sample relative to the vehicle control was calculated as follows: […]
I'd appreciate a reply containing only the number, no unit.

[
  {
    "compound": "CN(C(=O)C1(c2cnn(C)c2)CCN(c2cnnc(-c3ccccc3O)c2)CC1)C1CCN(C2COC3(CCN(c4ccc([C@H]5CCC(=O)NC5=O)cc4)CC3)C2)CC1 (mixture of isomers)",
    "Fold Selectivity SMARCA4/2": 1815
  },
  {
    "compound": "O=C1CCC(Nc2ccc(C3CCN(CCNC(=O)C4(c5ccccc5)CCN(c5cnnc(-c6ccccc6O)c5)CC4)CC3)cc2)C(=O)N1 (racemic)",
    "Fold Selectivity SMARCA4/2": 261
  },
  {
    "compound": "C[C@H](Oc1ccc(C2CCC(=O)NC2=O)cc1)C1CCN(C(=O)C2(c3ccccc3)CCN(c3cnnc(-c4ccccc4O)c3)CC2)CC1 (mixture of isomers)",
    "Fold Selectivity SMARCA4/2": 1
  },
  {
    "compound": "CC1(C)CC(NC(=O)C2(c3ccccc3)CCN(c3cnnc(-c4ccccc4O)c3)CC2)CCN1CC1CCN(c2ccc([C@H]3CCC(=O)NC3=O)cc2)CC1 (some centres unmarked)",
    "Fold Selectivity SMARCA4/2": 39
  },
  {
    "compound": "Cc1ccnn1C1(C(=O)N(C)C2CCN(CCC3CCN(c4cccc5c4n(C)c(=O)n5C4CCC(=O)NC4=O)CC3)CC2)CCN(c2cnnc(-c3ccccc3O)c2)CC1 (racemic)",
    "Fold Selectivity SMARCA4/2": 19
  }
]

query: Any idea what Fold Selectivity SMARCA4/2 was measured for O=C1CC[C@@H](c2cccc(N3CCC(CN4CCC5(CC4)CN(C(=O)C4(c6ccccc6)CCN(c6cnnc(-c7ccccc7O)c6)CC4)C5)CC3)c2)C(=O)N1 (racemic) ?
result: 6

query: Any idea what Fold Selectivity SMARCA4/2 was measured for O=C1CCC(c2ccc(N3C[C@H]4CN(CC(=O)N5CCC6(CC5)CN(C(=O)C5(c7ccccc7)CCN(c7cnnc(-c8ccccc8O)c7)CC5)C6)C[C@@H]4C3)cc2)C(=O)N1 (mixture of isomers) ?
result: 442

query: Any idea what Fold Selectivity SMARCA4/2 was measured for `COC1(C(=O)N2CCC3(CC2)CN(CC2CCN(c4ccc([C@H]5CCC(=O)NC5=O)cc4)CC2)C3)CCN(c2cnnc(-c3ccccc3O)c2)CC1` ?
result: 1316

query: Any idea what Fold Selectivity SMARCA4/2 was measured for CCN(C(=O)C1(c2ccccc2)CCN(c2cnnc(-c3ccccc3O)c2)CC1)C1CCN(C(=O)CN2CCN(c3ccc(C4CCC(=O)NC4=O)cc3)CC2)CC1 (racemic) ?
result: 20

query: Any idea what Fold Selectivity SMARCA4/2 was measured for `Cn1nc(N2CCC(=O)NC2=O)c2cccc(N3CCC(CN4CC5(C4)CN(C(=O)C4(c6ccccc6)CCN(c6cnnc(-c7ccccc7O)c6)CC4)C5)CC3)c21` ?
result: 147

query: Any idea what Fold Selectivity SMARCA4/2 was measured for Cn1ccc(C2(C(=O)N3CC4(CN(CC5CCN(c6ccc(C7CCC(=O)NC7=O)cc6)CC5)C4)C3)CCN(c3cnnc(-c4ccccc4O)c3)CC2)n1 (racemic) ?
result: 8.74

Ref: patent US20250051344A1
